- assay target: T1, HLA-A*02:01 class I complex (conditional p*HLA*02:01, biotinylated heavy chain with beta2-microglobulin) (human, biotinylated heavy chain)
- T1 construct: UV-labile peptide p* is cleaved and exchanged for the test peptide; also called HLA 2.1
- assay notes: UV peptide exchange, HLA class I ELISA, % of Pos peptide;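 further: Streptavidin-captured HLA complexes after exchange detected via HRP anti-human B2M antibody, absorbance read, colour scales with intact complex, normalized to exchange control peptide as 100%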
Exch I (%) for assorted binders
readout label: Exch I (%)

| binder | quantitative result |
| --- | --- |
| NLDEYVHNI (also called M116) [SF3B1.R625H14 mimic peptide NLDEYVHNI] | 71.1 |
| ALNNMFCQL (also called M160) [TP53.K132N mutant peptide ALNNMFCQL] | 39.6 |
| LLVVGACGV (also called M061) [KRAS_G12C2 mimic peptide LLVVGACGV] | 36.4 |
| SVTCTYFPA (also called M210) [TP53.S127F mutant peptide SVTCTYFPA] | 7.7 |
| VLPCEPPEV (also called M231) [TP53_Y220C2 mimic peptide VLPCEPPEV] | 66.3 |
| SMTCTYFPV (also called M213) [TP53_S127F7 mimic peptide SMTCTYFPV] | 83.4 |
| NMDEYVHNI (also called M115) [SF3B1.R625H13 mimic peptide NMDEYVHNI] | 73.6 |
| KLYPVQLWV (also called M131) [TP53_C141Y2 mimic peptide KLYPVQLWV] | 84.1 |
| QLWVDSTPV (also called M182) [TP53_P152L4 mimic peptide QLWVDSTPV] | 95.6 |
| GMAPPQLLV (also called M142) [TP53_H193L6 mimic peptide GMAPPQLLV] | 13.9 |
| NLDEYVHNV (also called M112) [SF3B1_R625H6 mimic peptide NLDEYVHNV] | 88.1 |
| YQGSYGFLL (also called M200) [TP53.R110L mutant peptide YQGSYGFLL] | 14.3 |
| YLDCGIHSG (also called M020) [CTNNB1.S33C mutant peptide YLDCGIHSG] | 34.8 |
| CYVYYYSYLL (also called M100) [PTEN.R173C mutant peptide CYVYYYSYLL] | 38.2 |
| SMTCTYFPI (also called M215) [TP53_S127F12 mimic peptide SMTCTYFPI] | 32.2 |
| GLAPPQYLI (also called M150) [TP53.H193Y mutant peptide GLAPPQYLI] | 13.5 |
